- assay-procedure: total protein half-life in vivo (active degradation + dilution); higher = more stable protein
- condition-label: E. coli NCM3722 delta-clpP delta-lon delta-hslV; growth: N-lim chemostat; doubling time 6 h
This section presents sequences with their documented total protein half-life in vivo values.
Please don't drop the unit; write it after the number.

Past entries and their recorded results:
INSERT INTO assay_data (sequence_input, value_measured) VALUES
  ('MSDERYQQRQQRVKEKVDARVAQAQDERGIIIVFTGNGKGKTTAAFGTATRAVGHGKKVGVVQFIKGTWPNGERNLLEPHGVEFQVMATGFTWDTQNRESDTAACREVWQHAKRMLADSSLDMVLLDELTYMVAYDYLPLEEVVQALNERPHQQTVIITGRGCHRDILELADTVSELRPVKHAFDAGVKAQIGIDY [P0A9H5]', '4.8 h'),
  ('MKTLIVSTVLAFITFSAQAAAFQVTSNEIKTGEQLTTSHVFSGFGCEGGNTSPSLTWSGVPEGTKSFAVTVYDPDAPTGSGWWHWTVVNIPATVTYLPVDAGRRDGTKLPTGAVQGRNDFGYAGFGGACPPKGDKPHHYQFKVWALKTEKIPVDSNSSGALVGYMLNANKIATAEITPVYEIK', '4.45 h');

Pending sequence:
Data request, read-out total protein half-life in vivo, for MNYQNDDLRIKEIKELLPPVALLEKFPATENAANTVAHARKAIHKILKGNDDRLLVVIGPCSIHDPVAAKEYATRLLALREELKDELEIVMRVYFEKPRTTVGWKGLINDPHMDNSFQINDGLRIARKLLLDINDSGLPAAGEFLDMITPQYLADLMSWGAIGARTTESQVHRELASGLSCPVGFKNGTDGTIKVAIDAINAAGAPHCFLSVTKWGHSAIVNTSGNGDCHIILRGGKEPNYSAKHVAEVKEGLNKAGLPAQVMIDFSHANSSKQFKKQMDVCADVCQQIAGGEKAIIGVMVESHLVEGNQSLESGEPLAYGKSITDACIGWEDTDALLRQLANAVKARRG [P0AB91] 3.65 h

====

- assay-procedure: total protein half-life in vivo (active degradation + dilution); higher = more stable protein
- condition-label: E. coli NCM3722 delta-hslV; growth: N-lim chemostat; doubling time 6 h
quantity: total protein half-life in vivo

Past entries and their recorded results:
INSERT INTO results (sequence_input, value_measured) VALUES
  ('MKYDLIIIGSGSVGAAAGYYATRAGLNVLMTDAHMPPHQHGSHHGDTRLIRHAYGEGEKYVPLVLRAQTLWDELSRHNEEDPIFVRSGVINLGPADSTFLANVAHSAEQWQLNVEKLDAQGIMARWPEIRVPDNYIGLFETDSGFLRSELAIKTWIQLAKEAGCAQLFNCPVTAIRHDDDGVTIETADGEYQAKKAIVCAGTWVKDLLPELPVQPVRKVFAWYQADGRYSVKNKFPAFTGELPNGDQYYGFPAENDALKIGKHNGGQVIHSADERVPFAEVASDGSEAFPFLRNVLPGIGCCLYGAACTYDNSPDEDFIIDTLPGHDNTLLITGLSGHGFKFASVLGEIAADFAQDKKSDFDLTPFRLSRFQ', '3.23 h'),
  ('MQERHTEQDYRALLIADTPIIDVRAPIEFEHGAMPAAINLPLMNNDERAAVGTCYKQQGSDAALALGHKLVAGEIRQQRMDAWRAACLQNPQGILCCARGGQRSHIVQSWLHAAGIDYPLVEGGYKALRQTAIQATIELAQKPIVLIGGCTGSGKTLLVQQQPNGVDLEGLARHRGSAFGRTLQPQLSQASFENLLAAEMLKTDARQNLRLWVLEDESRMIGSNHLPECLRERMTQAAIAVVEDPFEIRLERLNEEYFLRMHHDFTHAYGDEQGWQEYCEYLHHGLSAIKRRLGLQRYNELAARLDAALTTQLTTGSTDGHLAWLVPLLEEYYDPMYRYQLEKKAEKVVFRGEWAEVAEWVKAR', '4.35 h'),
  ('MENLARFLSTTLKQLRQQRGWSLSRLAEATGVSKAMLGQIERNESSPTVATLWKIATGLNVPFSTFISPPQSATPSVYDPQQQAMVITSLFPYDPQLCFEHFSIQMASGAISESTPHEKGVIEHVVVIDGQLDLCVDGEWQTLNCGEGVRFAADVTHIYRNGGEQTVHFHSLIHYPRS', '4.71 h'),
  ('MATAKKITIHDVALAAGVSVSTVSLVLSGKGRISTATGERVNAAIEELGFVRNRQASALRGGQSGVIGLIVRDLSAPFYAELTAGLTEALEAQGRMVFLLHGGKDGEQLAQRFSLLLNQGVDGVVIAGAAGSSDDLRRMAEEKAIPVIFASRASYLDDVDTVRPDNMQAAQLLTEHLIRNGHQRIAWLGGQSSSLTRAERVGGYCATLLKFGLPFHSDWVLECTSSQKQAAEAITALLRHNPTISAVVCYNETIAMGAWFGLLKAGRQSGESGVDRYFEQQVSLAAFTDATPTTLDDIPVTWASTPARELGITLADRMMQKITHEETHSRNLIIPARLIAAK', '4.56 h');

Pending sequence:
Data request, read-out total protein half-life in vivo, for `MVKKAIVTAMAVISLFTLMGCNNRAEVDTLSPAQAAELKPMPQSWRGVLPCADCEGIETSLFLEKDGTWVMNERYLGAREEPSSFASYGTWARTADKLVLTDSKGEKSYYRAKGDALEMLDREGNPIESQFNYTLEAAQSSLPMTPMTLRGMYFYMADAATFTDCATGKRFMVANNAELERSYLAARGHSEKPVLLSVEGHFTLEGNPDTGAPTKVLAPDTAGKFYPNQDCSSLGQ` 5.99 h

====

- assay-procedure: total protein half-life in vivo (active degradation + dilution); higher = more stable protein
- condition-label: wild type E. coli NCM3722; growth: C-lim chemostat; doubling time 12 h
This section presents sequences with their documented total protein half-life in vivo values.
Supply the numeric figure in h, leaving out any unit text.

Data request, read-out total protein half-life in vivo, for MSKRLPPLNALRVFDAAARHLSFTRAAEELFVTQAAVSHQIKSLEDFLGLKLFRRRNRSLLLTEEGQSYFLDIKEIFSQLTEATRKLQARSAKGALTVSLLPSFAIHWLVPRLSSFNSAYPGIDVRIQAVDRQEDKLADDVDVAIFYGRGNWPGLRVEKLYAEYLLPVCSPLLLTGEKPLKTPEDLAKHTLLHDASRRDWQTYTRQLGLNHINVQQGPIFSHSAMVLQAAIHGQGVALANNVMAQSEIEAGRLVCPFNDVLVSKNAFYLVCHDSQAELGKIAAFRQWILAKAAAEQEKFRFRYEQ [P0A9F6] 11

Same for `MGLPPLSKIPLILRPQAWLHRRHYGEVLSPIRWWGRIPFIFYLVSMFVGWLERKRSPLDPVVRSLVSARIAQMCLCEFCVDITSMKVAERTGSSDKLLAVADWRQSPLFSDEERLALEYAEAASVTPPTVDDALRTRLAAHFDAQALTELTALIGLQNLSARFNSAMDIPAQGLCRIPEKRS` 12.1

Same for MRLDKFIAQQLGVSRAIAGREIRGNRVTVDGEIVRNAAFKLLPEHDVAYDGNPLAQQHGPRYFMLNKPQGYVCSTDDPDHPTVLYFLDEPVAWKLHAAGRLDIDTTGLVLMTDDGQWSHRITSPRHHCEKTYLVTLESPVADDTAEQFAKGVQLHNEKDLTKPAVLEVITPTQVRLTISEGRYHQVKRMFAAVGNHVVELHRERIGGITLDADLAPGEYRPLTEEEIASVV [P0AA43] 8.66

====

This section presents sequences with their documented total protein half-life in vivo values.
- assay-procedure: total protein half-life in vivo (active degradation + dilution); higher = more stable protein
- condition-label: E. coli NCM3722 delta-clpP delta-lon delta-hslV; growth: N-lim chemostat; doubling time 6 h
Supply the numeric figure in h, leaving out any unit text.

Past entries and their recorded results:
INSERT INTO measurements (sequence_input, value_measured) VALUES
  ('MENQPKLNSSKEVIAFLAERFPHCFSAEGEARPLKIGIFQDLVDRVAGEMNLSKTQLRSALRLYTSSWRYLYGVKPGATRVDLDGNPCGELDEQHVEHARKQLEEAKARVQAQRAEQQAKKREAAATAGEKEDAPRRERKPRPTTPRRKEGAERKPRAQKPVEKAPKTVKAPREEQHTPVSDISALTVGQALKVKAGQNAMDATVLEITKDGVRVQLNSGMSLIVRAEHLVF', 6.28),
  ('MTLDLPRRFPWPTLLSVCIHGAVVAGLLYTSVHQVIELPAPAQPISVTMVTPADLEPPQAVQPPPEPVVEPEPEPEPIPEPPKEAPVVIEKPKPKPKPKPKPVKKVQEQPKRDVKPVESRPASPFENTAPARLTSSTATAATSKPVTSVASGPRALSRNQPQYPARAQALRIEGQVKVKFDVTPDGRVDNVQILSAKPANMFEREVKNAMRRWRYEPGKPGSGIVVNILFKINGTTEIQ', 3.05),
  ('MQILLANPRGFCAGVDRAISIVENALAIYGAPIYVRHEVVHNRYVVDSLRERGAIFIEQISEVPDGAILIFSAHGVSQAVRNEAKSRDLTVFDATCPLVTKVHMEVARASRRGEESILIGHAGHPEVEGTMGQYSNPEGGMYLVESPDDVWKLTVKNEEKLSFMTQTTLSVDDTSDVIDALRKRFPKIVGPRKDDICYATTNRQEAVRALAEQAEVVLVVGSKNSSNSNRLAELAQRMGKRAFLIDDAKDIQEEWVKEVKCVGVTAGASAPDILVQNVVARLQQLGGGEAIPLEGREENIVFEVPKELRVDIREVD', 5.14),
  ('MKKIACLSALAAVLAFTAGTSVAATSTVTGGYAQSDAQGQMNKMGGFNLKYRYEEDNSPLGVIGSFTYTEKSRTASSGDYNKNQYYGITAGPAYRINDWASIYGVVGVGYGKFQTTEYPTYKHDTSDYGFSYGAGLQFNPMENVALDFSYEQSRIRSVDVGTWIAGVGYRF [P0A917]', 7.26),
  ('MKDKVYKRPVSILVVIYAQDTKRVLMLQRRDDPDFWQSVTGSVEEGETAPQAAMREVKEEVTIDVVAEQLTLIDCQRTVEFEIFSHLRHRYAPGVTRNTESWFCLALPHERQIVFTEHLAYKWLDAPAAAALTKSWSNRQAIEQFVINAA [P0AFC0]', 3.93),
  ('MSFMVSEEVTVKEGGPRMIVTGYSSGMVECRWYDGYGVKREAFHETELVPGEGSRSAEEV', 5.18),
  ('MNNTPRYPQRVRNDLRFRELTVLRVERISAGFQRIVLGGEALDGFTSRGFDDHSKLFFPQPDAHFVPPTVTEEGIVWPEGPRPPSRDYTPLYDELRHELAIDFFIHDGGVASGWAMQAQPGDKLTVAGPRGSLVVPEDYAYQLYVCDESGMPALRRRLETLSKLAVKPQVSALVSVRDNACQDYLAHLDGFNIEWLAHDEQAVDARLAQMQIPADDYFIWITGEGKVVKNLSRRFEAEQYDPQRVRAAAYWHAK', 4.98),
  ('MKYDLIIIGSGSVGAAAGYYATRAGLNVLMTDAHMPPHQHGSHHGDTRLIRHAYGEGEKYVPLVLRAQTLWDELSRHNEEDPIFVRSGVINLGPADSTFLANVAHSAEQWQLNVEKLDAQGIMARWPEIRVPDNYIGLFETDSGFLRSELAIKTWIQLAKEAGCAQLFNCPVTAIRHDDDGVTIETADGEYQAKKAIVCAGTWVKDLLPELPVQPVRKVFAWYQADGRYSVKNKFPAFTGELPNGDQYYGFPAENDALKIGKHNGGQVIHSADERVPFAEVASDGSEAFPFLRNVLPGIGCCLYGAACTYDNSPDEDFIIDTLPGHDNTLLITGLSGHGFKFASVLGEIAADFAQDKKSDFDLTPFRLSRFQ', 4.35),
  ('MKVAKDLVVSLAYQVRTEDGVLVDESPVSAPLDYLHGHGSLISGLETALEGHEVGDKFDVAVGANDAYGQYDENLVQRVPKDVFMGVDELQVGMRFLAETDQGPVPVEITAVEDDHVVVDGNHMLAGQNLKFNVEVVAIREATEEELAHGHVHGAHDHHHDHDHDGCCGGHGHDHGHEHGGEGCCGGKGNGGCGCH [P0A9K9]', 4.87),
  ('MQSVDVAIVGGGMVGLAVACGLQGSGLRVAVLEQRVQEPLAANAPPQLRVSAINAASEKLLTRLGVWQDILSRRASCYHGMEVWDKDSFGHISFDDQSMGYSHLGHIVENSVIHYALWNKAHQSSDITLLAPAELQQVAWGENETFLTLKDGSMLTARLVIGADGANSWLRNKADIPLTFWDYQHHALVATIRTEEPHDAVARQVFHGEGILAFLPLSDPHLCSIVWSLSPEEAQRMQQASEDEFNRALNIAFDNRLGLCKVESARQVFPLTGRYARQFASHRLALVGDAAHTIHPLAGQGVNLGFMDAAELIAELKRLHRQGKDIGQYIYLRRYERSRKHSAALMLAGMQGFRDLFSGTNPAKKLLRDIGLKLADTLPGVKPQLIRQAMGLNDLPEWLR', 5.67);

Pending sequence:
Data request, read-out total protein half-life in vivo, for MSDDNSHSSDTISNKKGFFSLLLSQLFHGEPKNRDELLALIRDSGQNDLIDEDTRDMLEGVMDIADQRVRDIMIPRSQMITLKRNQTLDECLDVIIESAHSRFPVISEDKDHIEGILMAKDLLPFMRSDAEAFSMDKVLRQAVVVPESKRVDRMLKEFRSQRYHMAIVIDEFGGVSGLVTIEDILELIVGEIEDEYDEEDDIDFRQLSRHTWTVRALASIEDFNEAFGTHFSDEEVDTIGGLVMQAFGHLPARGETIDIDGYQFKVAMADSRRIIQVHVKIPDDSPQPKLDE [P0AE78] 5.6

Origin of values: the supplement of paper PMC11246515
